# ASSAYED_TARGET: Human immunodeficiency virus type 1 protease (Human immunodeficiency virus 1)
pIC50: −log10 of the molar value.
Returns 1 (yes) if the recorded pIC50 is greater than or equal to 5, and 0 (no) otherwise.

Record CCC(C)[C@H](NC(=O)C[C@H](O)[C@H](CC(C)C)NC(=O)CC1C=CCN2C(=O)CCC(CNCc3ccccc3)C(=O)N12)C(=O)N[C@@H](Cc1ccccc1)C(N)=O (stereo not given in full) ; criterion: pIC50 no lower than 5. Met?
0 (no)

Now the molecule CCC(C)[C@H](NC(=O)C[C@H](O)[C@H](Cc1ccccc1)NC(=O)CC1C=CCN2C(=O)CCC(CNCc3ccccc3)C(=O)N12)C(=O)N[C@@H](Cc1ccccc1)C(=O)OC (stereo not given in full)
0 (no)

Now the molecule CC[C@H](C)[C@H](NC(=O)C[C@H](O)[C@H](CC(C)C)NC(=O)CC1C=CCN2C(=O)CCC(CNCc3ccccc3)C(=O)N12)C(=O)N[C@@H](Cc1ccccc1)C(=O)OC (stereo not given in full)
0 (no)

Now the molecule CC[C@H](C)[C@H](NC(=O)C[C@H](O)[C@H](CC1CCCCC1)NC(=O)CC1C=CCN2C(=O)CCC(CNCc3ccccc3)C(=O)N12)C(=O)N[C@@H](Cc1ccccc1)C(=O)O (stereo not given in full)
0 (no)

Now the molecule CCC(C)[C@H](NC(=O)C[C@H](O)[C@H](CC1CCCCC1)NC(=O)CC1CCCN2C(=O)CCC(CN)C(=O)N12)C(=O)N[C@@H](Cc1ccccc1)C(N)=O (stereo not given in full)
1 (yes)
